molecular target: AchR (Homo sapiens); assay: ELISA of screened peptide phages on AchR versus streptavidin (OD450); assay type: binding; conditions: phage ELISA, absorbance at 450 nm, 5 μg/ml AchR; 4th and 5th round biopanning phages
Measured OD determines class: lower bin: < 0.5; middle bin: ≥ 0.5 and < 0.6; upper bin: ≥ 0.6

>  <Monomer sequence>
RTKKAYVK [Peptide L1-200]

>  <Tested target>
AchR (Homo sapiens)

>  <Classification>
upper bin

$$$$
>  <Monomer sequence>
RHRRANFR [Peptide L1-147]

>  <Tested target>
AchR (Homo sapiens)

>  <Classification>
lower bin

$$$$
>  <Monomer sequence>
RARKESHK [Peptide L1-166]

>  <Tested target>
AchR (Homo sapiens)

>  <Classification>
upper bin

$$$$
>  <Monomer sequence>
KVRRVFLK [Peptide L1-132]

>  <Tested target>
AchR (Homo sapiens)

>  <Classification>
middle bin

$$$$
>  <Monomer sequence>
KARRVGTK [Peptide L1-143]

>  <Tested target>
AchR (Homo sapiens)

>  <Classification>
lower bin

$$$$
>  <Monomer sequence>
RCRKDTAR [Peptide L1-142]

>  <Tested target>
AchR (Homo sapiens)

>  <Classification>
lower bin

$$$$
>  <Monomer sequence>
RSRRGIGK [Peptide L1-192]

>  <Tested target>
AchR (Homo sapiens)

>  <Classification>
middle bin

$$$$
>  <Monomer sequence>
KAKRGHFK [Peptide L1-68]

>  <Tested target>
AchR (Homo sapiens)

>  <Classification>
middle bin

$$$$
>  <Monomer sequence>
KYRRNLVR [Peptide L1-56]

>  <Tested target>
AchR (Homo sapiens)

>  <Classification>
lower bin

$$$$
>  <Monomer sequence>
RHKKFIEK [Peptide L1-59]

>  <Tested target>
AchR (Homo sapiens)

>  <Classification>
lower bin

$$$$
>  <Monomer sequence>
RVKRFVPK [Peptide L1-112]

>  <Tested target>
AchR (Homo sapiens)

>  <Classification>
lower bin

$$$$
>  <Monomer sequence>
RGKRQLGR [Peptide L1-3]

>  <Tested target>
AchR (Homo sapiens)

>  <Classification>
upper bin

$$$$

* * *

biological target: AchR (Homo sapiens, UniProt P02708); assay: ELISA of screened peptide phages on AchR versus streptavidin (OD450); assay type: binding; settings: ELISA of selected 11-mer (L2) peptide phages on AchR, absorbance at 450 nm; Spep-2 positive control
Sequence (P02708 21-457): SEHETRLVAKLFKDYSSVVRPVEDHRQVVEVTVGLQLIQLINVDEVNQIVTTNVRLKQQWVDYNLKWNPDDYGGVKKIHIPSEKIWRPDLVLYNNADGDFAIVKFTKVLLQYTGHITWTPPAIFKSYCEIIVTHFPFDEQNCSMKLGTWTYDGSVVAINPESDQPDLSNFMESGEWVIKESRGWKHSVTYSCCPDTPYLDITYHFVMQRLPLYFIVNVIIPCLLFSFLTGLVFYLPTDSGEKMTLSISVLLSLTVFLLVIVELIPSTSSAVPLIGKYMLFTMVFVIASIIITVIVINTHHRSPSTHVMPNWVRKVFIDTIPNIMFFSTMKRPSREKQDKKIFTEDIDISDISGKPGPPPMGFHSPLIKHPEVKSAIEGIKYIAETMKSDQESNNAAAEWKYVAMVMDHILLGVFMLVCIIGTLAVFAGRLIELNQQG

>  <Substance>
L2-153 (GHQRGKREGSR; AchR binding peptide) [Peptide L2-153]

>  <OD>
0.688

$$$$
>  <Substance>
L2-40 (PEVKVRRHSMR; AchR binding peptide) [Peptide L2-40]

>  <OD>
0.685

$$$$
>  <Substance>
L2-21 (MVMKWKRWNQR; AchR binding peptide) [Peptide L2-21]

>  <OD>
0.719

$$$$
>  <Substance>
L2-156 (YGLRMRKWYMK; AchR binding peptide) [Peptide L2-156]

>  <OD>
0.683

$$$$

* * *

target: AchR (Homo sapiens, UniProt P02708); test: ELISA of screened peptide phages on AchR versus streptavidin (OD450); format: binding; conditions: ELISA of selected 14-mer (L3) peptide phages on AchR, absorbance at 450 nm; Spep-2 positive control
Measured OD, listed per entry.

>  <Substance>
L3-117 (CGHKNKKWHNRMDP; AchR binding peptide) [Peptide L3-117]

>  <OD>
0.696

$$$$
>  <Substance>
L3-79 (QQFKYRRECVKYGS; AchR binding peptide) [Peptide L3-79]

>  <OD>
0.701

$$$$
>  <Substance>
L3-47 (LYEKYKKHNNREDD; AchR binding peptide) [Peptide L3-47]

>  <OD>
0.558

$$$$
>  <Substance>
L3-114 (LQNRMRKIYWKTFD; AchR binding peptide) [Peptide L3-114]

>  <OD>
0.646

$$$$
>  <Substance>
L3-10 (AHGKDRRYVEKLEV; AchR binding peptide) [Peptide L3-10]

>  <OD>
0.769

$$$$
>  <Substance>
L3-36 (AFSRIKRGVLKLLS; AchR binding peptide) [Peptide L3-36]

>  <OD>
0.787

$$$$

* * *

target: AchR (Homo sapiens, UniProt P02708); test: ELISA of screened peptide phages on AchR versus streptavidin (OD450); format: binding; settings: phage ELISA, absorbance at 450 nm, 5 μg/ml AchR; 4th and 5th round biopanning phages
Measured OD, listed per entry.

>  <Monomer sequence>
GGGRKKRRQRR [Peptide L2-202, reference compound]

>  <OD>
0.314

$$$$
>  <Monomer sequence>
KKRKGSAK [Peptide L1-2]

>  <OD>
0.68

$$$$
>  <Monomer sequence>
RAKKCYHK [Peptide L1-50]

>  <OD>
0.583

$$$$
>  <Monomer sequence>
RGRKKCGK [Peptide L1-42]

>  <OD>
0.695

$$$$
>  <Monomer sequence>
KNRKNLYR [Peptide L1-36]

>  <OD>
0.553

$$$$
>  <Monomer sequence>
RQRKSMQR [Peptide L1-27]

>  <OD>
0.662

$$$$
>  <Monomer sequence>
KARRNSLK [Peptide L1-175]

>  <OD>
0.621

$$$$
>  <Monomer sequence>
KSRKWGWR [Peptide L1-39]

>  <OD>
0.509

$$$$
>  <Monomer sequence>
RIRRWWVR [Peptide L1-82]

>  <OD>
0.596

$$$$
>  <Monomer sequence>
RFRRNFHK [Peptide L1-196]

>  <OD>
0.583

$$$$
>  <Monomer sequence>
RFKRLCMK [Peptide L1-15]

>  <OD>
0.67

$$$$
>  <Monomer sequence>
KAKKIRQR [Peptide L1-1]

>  <OD>
0.693

$$$$
>  <Monomer sequence>
KMRRIMYK [Peptide L1-64]

>  <OD>
0.589

$$$$
>  <Monomer sequence>
GGRKKRRQRRRGGG [Peptide L3-202, reference compound]

>  <OD>
0.301

$$$$
>  <Monomer sequence>
RCKKNPEK [Peptide L1-66]

>  <OD>
0.605

$$$$
>  <Monomer sequence>
RGKKAVRK [Peptide L1-20]

>  <OD>
0.619

$$$$
>  <Monomer sequence>
KIKKLSQK [Peptide L1-168]

>  <OD>
0.588

$$$$
>  <Monomer sequence>
RPKKWMQK [Peptide L1-61]

>  <OD>
0.625

$$$$
>  <Monomer sequence>
KDKRPECK [Peptide L1-133]

>  <OD>
0.504

$$$$
>  <Monomer sequence>
KSRKHCNR [Peptide L1-70]

>  <OD>
0.668

$$$$
>  <Monomer sequence>
KARKNSIR [Peptide L1-170]

>  <OD>
0.642

$$$$
>  <Monomer sequence>
KYKKQHTK [Peptide L1-41]

>  <OD>
0.613

$$$$
>  <Monomer sequence>
KERKHEAK [Peptide L1-62]

>  <OD>
0.633

$$$$
>  <Monomer sequence>
KPKRDQSR [Peptide L1-113]

>  <OD>
0.526

$$$$

* * *

Measured OD, listed per entry.
biological target: AchR (Homo sapiens, UniProt P02708); assay: ELISA of screened peptide phages on AchR versus streptavidin (OD450); format: binding; conditions: ELISA of selected 14-mer (L3) peptide phages on AchR, absorbance at 450 nm; Spep-2 positive control

>  <Substance>
L3-69 (CVNRVKKSDSKGTW; AchR binding peptide) [Peptide L3-69]

>  <OD>
0.733

$$$$
>  <Substance>
L3-195 (IEDKSKRFNCKECG; AchR binding peptide) [Peptide L3-195]

>  <OD>
0.7

$$$$
>  <Substance>
L3-187 (HGHKPRRWIYRMPM; AchR binding peptide) [Peptide L3-187]

>  <OD>
0.731

$$$$
>  <Substance>
L3-160 (LTSRCKKTFQKNSE; AchR binding peptide) [Peptide L3-160]

>  <OD>
0.792

$$$$

* * *

Measured OD, listed per entry.
biological target: AchR (Homo sapiens); test: ELISA of screened peptide phages on AchR versus streptavidin (OD450); format: binding; details: ELISA of selected 11-mer (L2) peptide phages on AchR, absorbance at 450 nm; Spep-2 positive control

>  <Substance>
L2-117 (DNGKIRRCLGK; AchR binding peptide) [Peptide L2-117]

>  <OD>
0.607

$$$$
>  <Substance>
L2-149 (LPMKQRKCEFR; AchR binding peptide) [Peptide L2-149]

>  <OD>
0.465

$$$$
>  <Substance>
L2-178 (VPYRHRRMQFK; AchR binding peptide) [Peptide L2-178]

>  <OD>
0.718

$$$$
>  <Substance>
L2-1 (EDYKYRRQNYK; AchR binding peptide) [Peptide L2-1]

>  <OD>
0.705

$$$$
>  <Substance>
L2-41 (AEVKDKKAYYK; AchR binding peptide) [Peptide L2-41]

>  <OD>
0.568

$$$$
>  <Substance>
L2-3 (SPVRWKRLCLR; AchR binding peptide) [Peptide L2-3]

>  <OD>
0.796

$$$$
>  <Substance>
L2-44 (NMGRHKRPFLK; AchR binding peptide) [Peptide L2-44]

>  <OD>
0.579

$$$$
>  <Substance>
L2-189 (AHIKSRKVWSR; AchR binding peptide) [Peptide L2-189]

>  <OD>
0.696

$$$$
>  <Substance>
L2-43 (LMDRTRRDMYK; AchR binding peptide) [Peptide L2-43]

>  <OD>
0.572

$$$$
>  <Substance>
L2-85 (VFVKWRRQMMR; AchR binding peptide) [Peptide L2-85]

>  <OD>
0.768

$$$$
>  <Substance>
L2-160 (ADIRMKKWYPK; AchR binding peptide) [Peptide L2-160]

>  <OD>
0.721

$$$$
>  <Substance>
L2-46 (CYWKAKRYPMR; AchR binding peptide) [Peptide L2-46]

>  <OD>
0.704

$$$$
>  <Substance>
L2-28 (CIWKSKRSPAK; AchR binding peptide) [Peptide L2-28]

>  <OD>
0.762

$$$$
>  <Substance>
L2-136 (YTSKNKRGCPR; AchR binding peptide) [Peptide L2-136]

>  <OD>
0.454

$$$$
>  <Substance>
L2-152 (IALKPKRVWLK; AchR binding peptide) [Peptide L2-152]

>  <OD>
0.681

$$$$
>  <Substance>
L2-140 (YPQKLRRTALK; AchR binding peptide) [Peptide L2-140]

>  <OD>
0.445

$$$$
>  <Substance>
L2-126 (AMMKYKKEFPK; AchR binding peptide) [Peptide L2-126]

>  <OD>
0.605

$$$$

Cited source for all entries: patent US20260000597A1
